Use 90 °C as the dividing line for melting point, with the line itself on the t side and lower values as f.

| compound | classification |
| --- | --- |
| CCCCCCCCc1ccc(NC(=O)Oc2ccc(OC)cc2)cc1 | t |
| c1ccc2c(c1)cc1ccc3cccc4c5ccccc5c2c1c34 | t |
| NCCCC(N)C(=O)O (stereo unspecified) | t |
| C#CCOc1c(Cl)cccc1Cl | f |
| CCC(C)OC(C)CC (stereo unspecified) | f |
| Cc1nc(Cl)ccc1I | f |
| O=C(O)c1cc(=O)cc(C(=O)O)o1 | t |
| COC(=O)C1(C(=O)OC)Cc2ccccc2C(=O)O1 | t |
| CCNc1ccc2ccccc2c1N=Nc1ccc(N=Nc2ccccc2)cc1 | t |
| Nc1cc(N)c(/C=C/c2ccccc2)c([N+](=O)[O-])c1C=Cc1ccccc1 | t |
| CC1CCC(C)(CO)C1(C)C (stereo unspecified) | t |
| O=CC(Cl)(Cl)Cl | f |
| CC(=O)OC1(C(C)=O)CCC2C3C=C(Cl)C4=CC(=O)C=CC4(C)C3CCC21C (stereo unspecified) | t |
| N#Cc1cc(I)ccc1F | f |
| Nc1c(Br)cc(Br)cc1Cc1ccccc1 | t |
| C=Cc1ccc(C)cc1C | f |
| CCOCCO | f |
| O=c1oc2c3c4c(cc2c2c1CCC2)CCCN4CCC3 | t |

---

Below, each entry is listed alongside its reported melting point.
readout type: melting point (°C)

| compound | readout type | measured result |
| --- | --- | --- |
| FC1(F)C(F)(F)C(F)(Cl)C1(F)Cl (configuration not stated) | melting point | -15 |
| NCCCCCN | melting point | 9 |
| O=C1CC(c2ccc([N+](=O)[O-])cc2)=NN1c1ccccc1 | melting point | 189 |
| O=C(O)c1ccc(N=C=S)cc1 | melting point | 220 |
| N#CC1=C(N)Oc2c(c(C(F)(F)F)nn2-c2ccccc2)C1c1ccc(F)cc1 (configuration not stated) | melting point | 202 |
| CC(C=CC1=C(C)CCCC1(C)C)=CC=CC(C)=CC(=O)O | melting point | 185 |
| N#CCCn1cnc2c(N)ncnc21 | melting point | 255 |
| C1CN2CCN3CCN4CCN1C2C43 (configuration not stated) | melting point | 30 |
| CN1CCN(C2CCNCC2)CC1 | melting point | 54.5 |
| OCC(F)(F)C(F)(F)C(F)(F)C(F)(F)CO | melting point | 69 |
| Cc1cccc(NC(=O)C(C(F)(F)F)C(F)(F)F)c1 | melting point | 175 |

---

List of melting point values.

| molecule | melting point |
| --- | --- |
| C=CCc1cc(Cl)ccc1O | 48 °C |
| O=[N+]([O-])c1cc(Cl)c(Cl)cc1Cl | 57.5 °C |
| COC(=O)c1c(SC)nc(-c2ccccc2)[nH]c1=O | 283 to 285 °C |
| COc1cc(C)cc(OC)c1OC | 36 °C |
| CC(=O)N(C)c1ccccc1 | 103 °C |
| OC1CCN(Cc2ccccc2)CC1 | 62 °C |
| CC(C)CC(N)P(=O)(O)O (stereo unspecified) | 274 to 280 °C |
| CCOC(=O)CCCCCCCCCCCCC(=O)OCC | 28 to 31 °C |
| CC(C)[C@H]1NC(=O)CNC1=O | 250 to 260 °C |
| CCCCN(C(C)=O)c1ccccc1 | 24.5 °C |
| CCOC(=O)N1CCc2cc(OC)c(OC)cc2C1C#N (stereo unspecified) | 110 to 112 °C |
| O=[N+]([O-])c1ccc(S(=O)(=O)OCc2ccccc2OS(=O)(=O)c2ccc([N+](=O)[O-])cc2)cc1 | 204 to 206 °C |
| CC(=NO)c1ccccn1 | 117 to 119 °C |
| CC(C)NCC(O)COc1ccc(COCCOC(C)C)cc1 (stereo unspecified) | 100 °C |
| Nc1nc(-c2ccc(O)cc2)cs1 | 206 to 208 °C |
| C=C1C(=O)C23C(OC(C)=O)CC4C5(C)CCCC4(C(O)OC5)C2C(OC(C)=O)CC1C3OC(C)=O (stereo unspecified) | 226 °C |
| C=CCOC1(C#Cc2ccccc2)Cc2ccccc21 (stereo unspecified) | 50 °C |
| COc1ccc2c(c1)OC(c1ccccc1)CC2=O (stereo unspecified) | 88 °C |
| Cc1ccc(N)c([N+](=O)[O-])c1 | 116 °C |
| COc1ccc(/C=C/C=O)cc1 | 55 to 60 °C |
| Cc1nc2ccccn2c1C=O | 117 to 118 °C |
| O=S(=O)(Cl)c1ccc(-c2ccccc2)cc1 | 115 °C |
| ON=C(c1ccc(F)cc1)c1ccc(F)cc1 | 140 °C |
| COc1cc(S(C)=O)ccc1-c1nc2ncccc2[nH]1 (stereo unspecified) | 204 °C |
| O=C(O)Cc1ccccc1F | 63 °C |
| O=C(O)C1CSC(c2cccnc2)=N1 (stereo unspecified) | 180 to 181 °C |

---

Listed next: entries and their corresponding melting point.

| smiles string | quantity unit | melting point |
| --- | --- | --- |
| Cc1cccc(C(C)(C)C)c1N=C=O | °C | 37 |
| Nc1ncc(Cl)cc1I | °C | 97 |
| COc1ccc2c(=O)c(=O)c2c1 | °C | 102 |
| O=C(O)CN(CCN(CC(=O)O)CC(=O)O)CC(=O)O | °C | 220 |
| COc1c(C)c2c(c(O)c1CC=C(C)CCC(=O)OCCN1CCOCC1)C(=O)OC2 | °C | 93.5 |
| FC(F)CBr | °C | -75 |

---

Items are presented alongside their recorded melting point.

| molecule | melting point / °C |
| --- | --- |
| Nc1ncc(Cl)cc1Br | 84 |
| Cc1cc(S(N)(=O)=O)ccc1Br | 151 |
| CCCCCCc1ccc2c(c1)CCC2 | -34 |
| COC(=O)c1cc2cc3cc(C(=O)OC)c(C(=O)OC)cc3cc2cc1C(=O)OC | 220 |
| O=C(Cc1ccccc1)OC1Cc2ccccc21 (stereo not given) | 42 |
| O=C(CBr)c1cccc([N+](=O)[O-])c1 | 94 |
| O=c1oc2ccccc2c(O)c1C(CC(O)c1ccc(-c2ccc(Br)cc2)cc1)c1ccccc1 (stereo not given) | 199 |
| COc1cc2c(cc1C)C(C(=O)O)C2 (stereo not given) | 138 |
| O=C(O)c1ccc(Oc2ccccc2)nc1 | 164 |
| CC1(c2ccccc2)C(=O)NC(=O)NC1=O | 224 |
| Sc1nc2cc(Cl)ccc2[nH]1 | 300 |
| Cn1c(/C(C#N)=N/Nc2ccc(C(=O)O)cc2)nc2ccccc21 | 200 |
| CC1=C(O)C(=O)C(C)O1 (stereo not given) | 80.5 |

---

Tag: label 1 if measured melting point is not below 60 °C, label 0 if it is.

| compound | classification |
| --- | --- |
| COc1c(Cl)ccc(Cl)c1C(=O)O | label 1 |
| CCc1cccc(Cl)c1 | label 0 |
| O=C1CC(C(=O)O)CC(=O)C1=C(O)C1CC1 (stereo unspecified) | label 1 |
| O=Cc1ccc(I)o1 | label 1 |
| COC(=O)c1cc(C)ccc1O | label 0 |
| CC(C)(C)c1nnc(NS(=O)(=O)c2ccc(N)cc2)s1 | label 1 |
| CC(=O)CCC1C(=O)N(c2ccccc2)N(c2ccccc2)C1=O | label 1 |
| BrCc1cccc(-c2cccs2)c1 | label 0 |
| NS(=O)(=O)c1cc2c(s1)C(O)CCS2=O (stereo unspecified) | label 1 |
| O=C(O)CN(CC(=O)O)Cc1cc2c(cc1O)Oc1cc(O)c(CN(CC(=O)O)CC(=O)O)cc1C21OC(=O)c2ccccc21 | label 1 |
| Nc1ccc(C(F)(F)F)c(F)c1 | label 0 |
| CCCCCCCCCCCC(=O)OCCOCCO | label 0 |
| OC(c1ccc(Cl)cc1)c1ccc(Cl)cc1 | label 1 |
| CC12CCCC1C1CCC3CCCCC3(C)C1CC2 (stereo unspecified) | label 0 |
| Clc1ccccc1-c1nc2ccccc2[nH]1 | label 1 |
| COC1CCC=CO1 (stereo unspecified) | label 0 |
| CN(C)CCn1cnc2c1c(=O)n(C)c(=O)n2C | label 1 |
| CN1CCC23C(=O)CC4C(=CCOC5CC(=O)N(c6c(O)cccc62)C3C54)C1 (stereo unspecified) | label 1 |
| Nc1ccc(S(=O)(=O)c2ccc(NCCO)cc2)cc1 | label 1 |
| O=C(O)c1ccc2nccn2c1 | label 1 |
| CCCCCCCCCCCCCCCCCl | label 0 |
| O=C(C=Cc1ccccc1)OCC=Cc1ccccc1 | label 0 |
| COc1cc2cncc(Cc3ccccc3)c2cc1O | label 1 |
| C=CCOCC=C | label 0 |
| CNC(=O)ON=C(CSC)C(C)(C)C | label 0 |
| CC(C(=O)O)N(C)C(=O)OC(C)(C)C (stereo unspecified) | label 1 |
| COc1ccc(C#N)c(OC(F)(F)F)c1 | label 0 |
| CCCCC(=O)OCC(=O)C1C(C)CC2C3CC(F)C4=CC(=O)C=CC4(C)C3(F)C(O)CC21C (stereo unspecified) | label 1 |
| CC(CC(=O)c1ccccc1)c1ccccc1 (stereo unspecified) | label 1 |
| c1ccc2sc(SSc3nc4ccccc4s3)nc2c1 | label 1 |
| O=C(O)c1ccc(N2C(=O)C3ON=C(C(=O)c4cccs4)C3C2=O)cc1 (stereo unspecified) | label 1 |
| Oc1cccnc1I | label 1 |
| Oc1cc(C(F)(F)F)nc2c(Cl)cccc12 | label 1 |
| COC(=O)c1ccccc1NC(=S)NNC(=O)C(=O)c1c[nH]c2ccccc12 | label 1 |
| Clc1ccc2c(c1)Oc1cc(Cl)c(Cl)c(Cl)c1O2 | label 1 |
